- target: Glc(a1-6)Glc(a1-6)Glc
- assay_method_text: glycan array binding signal (z-score within array); higher = stronger binding
- condition_info: glycan notation: IUPAC condensed, linker removed
The full list was thinned out, with the strongest signals kept by preference.
Measured glycan array binding signal (z-score), listed per entry for reference.
test_readout: glycan array binding signal (z-score)

[[record]]
binder = "Regenerating Gene I (Homo sapiens), P05451 (protein) MAQTSSYFMLISCLMFLSQSQGQEAQTELPQARISCPEGTNAYRSYCYYFNEDRETWVDADLYCQNMNSGNLVSVLTQAEGAFVASLIKESGTDDFNVWIGLHDPKKNRRWHWSSGSLVSYKSWGIGAPSSVNPGYCVSLTSSTGFQKWKDVPCEDKFSFVCKFKN"
measured = -0.118

[[record]]
binder = "OVGAL11 (Ovis aries), AAF64320 (protein) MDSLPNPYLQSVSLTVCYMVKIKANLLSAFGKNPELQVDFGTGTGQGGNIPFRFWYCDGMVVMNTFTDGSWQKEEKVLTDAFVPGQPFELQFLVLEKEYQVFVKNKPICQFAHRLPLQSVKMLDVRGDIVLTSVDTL"
measured = -0.089

[[record]]
binder = "Gal-9-hFc (Mus musculus), O08573-2 (protein) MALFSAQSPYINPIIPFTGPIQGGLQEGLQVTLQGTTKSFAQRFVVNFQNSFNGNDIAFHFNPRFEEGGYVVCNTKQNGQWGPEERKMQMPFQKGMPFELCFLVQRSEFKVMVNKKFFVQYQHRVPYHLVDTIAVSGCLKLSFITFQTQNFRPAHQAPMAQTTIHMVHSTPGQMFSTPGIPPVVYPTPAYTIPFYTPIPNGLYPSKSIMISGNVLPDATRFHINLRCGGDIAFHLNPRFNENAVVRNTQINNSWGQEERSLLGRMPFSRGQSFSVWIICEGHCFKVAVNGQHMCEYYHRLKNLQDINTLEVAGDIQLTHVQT"
measured = 0.138

